- target-or-system: T1, recombinant LILRB1 (human, UniProt Q8NHL6 24-461)
- T1 construct: LILRB1-Fc proteins were also made; also called LILRB1 recombinant proteins
- T1 sequence (Q8NHL6 24-461 limits assumed): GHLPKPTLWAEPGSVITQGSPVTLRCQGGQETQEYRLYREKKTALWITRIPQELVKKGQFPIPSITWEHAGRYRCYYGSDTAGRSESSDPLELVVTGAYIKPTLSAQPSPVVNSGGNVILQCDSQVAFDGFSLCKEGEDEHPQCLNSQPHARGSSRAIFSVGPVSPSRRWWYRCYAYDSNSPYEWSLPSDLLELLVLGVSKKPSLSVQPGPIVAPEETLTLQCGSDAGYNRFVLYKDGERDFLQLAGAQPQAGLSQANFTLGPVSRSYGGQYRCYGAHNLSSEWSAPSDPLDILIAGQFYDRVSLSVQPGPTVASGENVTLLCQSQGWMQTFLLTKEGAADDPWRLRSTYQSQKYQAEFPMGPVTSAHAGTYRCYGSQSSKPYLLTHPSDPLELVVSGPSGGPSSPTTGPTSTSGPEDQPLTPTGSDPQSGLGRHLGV
- measurement-notes: ELISA, coated recombinant LILRB1, antibody titration;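 also: serially diluted anti-LILRB1 antibodies incubated 60 min at 37 °C on plates coated with 50 ng/well recombinant protein, TMB colorimetric development read as absorbance at 450 nm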
reported-endpoint: EC50 (ng/mL)
Numbers only, in ng/mL.

# return recorded EC50 for input B1-#204 (antibody, V domains shown, recombinant rabbit IgG) VH: QSVKESGGGLVKPGGTLTLTCTASGFSFSSSYCMCWVRQAPGKGLELIACIYTDSSGATYYASWAKGRFTISKSSSTTITLQMTSLTAADTATYFCARGWDYEDPGYTDTTYFSLWGPGTLVTVSS VL: ELDMTQTPSSVEAAVGGTVTIKCQASQTIYTNLAWYQQKPGQPPNLLIYAASTLASGVSSRFKGSGSGTEFTLTISDLECADAATYYCQSYYGSSTTGNGFGGGTEVEIN 7.37
